Give measured IC50 for each item. Keep answers brief.
# tested-target: Bub1 (Homo sapiens)
# Construct: catalytic domain of human Bub1 (amino acids 704-1085); His6 (N); made in house; host or cells: insect cells (Hi5)
# Sequence (O43683 704-1085): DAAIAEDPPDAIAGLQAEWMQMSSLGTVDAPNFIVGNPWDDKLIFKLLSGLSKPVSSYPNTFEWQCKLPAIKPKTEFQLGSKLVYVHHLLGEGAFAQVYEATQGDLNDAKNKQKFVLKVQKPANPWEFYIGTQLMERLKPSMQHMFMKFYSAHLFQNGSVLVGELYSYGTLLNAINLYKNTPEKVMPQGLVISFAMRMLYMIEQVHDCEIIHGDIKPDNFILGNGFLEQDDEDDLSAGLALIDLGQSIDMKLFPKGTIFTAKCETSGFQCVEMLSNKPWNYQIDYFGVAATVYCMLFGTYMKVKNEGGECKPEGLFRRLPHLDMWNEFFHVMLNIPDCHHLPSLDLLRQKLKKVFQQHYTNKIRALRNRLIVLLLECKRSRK
# procedure-summary: Bub1 high ATP kinase assay (TR-FRET)
# Assay type: biochemical
# condition-summary: Bub1 high ATP (2 mM) IC50, TR-FRET, 2 mM ATP; Table 3
Give bare numbers, in µM.

Answered examples (2):
In [3]: df
Out[3]:
                                   molecule        tested_target  unit  experimental_value
0  COc1c(Cl)cccc1Nc1c(-c2ccncc2OCC[C@@H]2CCCO2)[nH]c2c1C(=O)N[C@H](C)C2  Bub1 (Homo sapiens)    µM                1.98
1  Cc1c(Cl)cccc1Nc1c(-c2ccncc2OCC2COCCO2)[nH]c2c1C(=O)NCC2C (single isomer, unassigned) [Example 68]  Bub1 (Homo sapiens)    µM                5.13

// switching to the query molecule
Please state recorded IC50 (tested on Bub1 (Homo sapiens)) of COc1c(Cl)cccc1Nc1c(-c2ccncc2OCC2CCCCO2)[nH]c2c1C(=O)NCC2C (stereo not shown) [Example 44]
6.45

From: patent US20230064983A1
